- systemTested: mAChR M4 (Homo sapiens, UniProt P08173)
- Construct: expressed in transfected cells; host or cells: CHO-K1 cells stably transfected with M4 cDNA and chimeric G-protein Gqi5
- Sequence (P08173 1-479): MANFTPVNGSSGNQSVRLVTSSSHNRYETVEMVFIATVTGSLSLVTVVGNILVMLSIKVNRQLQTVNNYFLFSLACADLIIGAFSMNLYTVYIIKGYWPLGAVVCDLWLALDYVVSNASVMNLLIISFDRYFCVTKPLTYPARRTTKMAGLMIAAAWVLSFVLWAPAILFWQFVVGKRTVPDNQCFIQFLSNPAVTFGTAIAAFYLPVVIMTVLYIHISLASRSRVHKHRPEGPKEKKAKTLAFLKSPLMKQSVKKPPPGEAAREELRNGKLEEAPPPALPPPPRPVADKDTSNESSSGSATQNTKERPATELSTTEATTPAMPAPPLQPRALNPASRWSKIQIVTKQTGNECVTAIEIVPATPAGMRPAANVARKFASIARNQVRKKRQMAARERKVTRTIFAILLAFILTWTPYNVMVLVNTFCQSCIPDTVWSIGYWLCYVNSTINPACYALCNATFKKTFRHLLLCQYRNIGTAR
- experimentDescription: mAChR M4 cell-based functional assay (calcium mobilization, potentiation of EC20 acetylcholine response)
- studyConditions: % ACh maximum at 30 μM
recordedEndpoint: Emax at 30 µM (%)
// note: answer is a bare numeric in %

Inquiry: Requested read-out Emax at 30 µM, target or system mAChR M4 (Homo sapiens, UniProt P08173), entry Cc1nnc2sc(C(=O)N3CC4CN(C(=O)C(C)(C)C)CC4C3)c(N)c2c1C (centres unmarked) [Example B333]
Reply text: 53

Inquiry: Next up: Cc1nnc2sc(C(=O)NC3CN(S(=O)(=O)c4cccc(Cl)c4F)C3)c(N)c2c1C [Example B139]
Reply text: 65

Inquiry: Next up: Cc1nnc2sc(C(=O)NC3CC3)c(N)c2c1C [Example B8]
Reply text: 97

Inquiry: Next up: Cc1nnc2sc(C(=O)NCc3ccc(S(=O)(=O)C(C)(C)C)cc3)c(N)c2c1C [Example B47]
Reply text: 76

Inquiry: Next up: Cc1nnc2sc(C(=O)NCc3ccc(-c4ccc(F)nc4)cc3)c(N)c2c1C [Example B459]
Reply text: 88

Inquiry: Next up: Cc1nnc2sc(C(=O)N3CC(F)(c4ccc(-c5ccncc5)cc4)C3)c(N)c2c1C [Example B318]
Reply text: 35

Inquiry: Next up: Cc1nnc2sc(C(=O)NC3COC3)c(N)c2c1C [Example B24]
Reply text: 80

Inquiry: Next up: Cc1nnc2sc(C(=O)N3CCC(NS(=O)(=O)CCCc4ccccc4)C3)c(N)c2c1C (centres unmarked) [Example B234]
Reply text: 50
